These entries and their values trace back to patent US20200181095A1.

Here's a batch of compounds along with measured pIC50 for MMP-13 (Homo sapiens).
pIC50: −log10 of the molar value.
result type: pIC50

Solved entries (count: 2):
compound	observed measurement
O=C(O)CNS(=O)(=O)c1ccc(-c2ccc(CSc3nc4c(c(=O)[nH]3)CCC4)cc2)cc1 [Compound 10b]	8.80
CC(C)[C@H](NS(=O)(=O)c1ccc(-c2ccc(CSc3nc4c(c(=O)[nH]3)CCC4)cc2)cc1)C(=O)O [(S)-10a]	8.66

A: CNC(=O)[C@@H](NC(=O)c1ccc(-c2ccc(CSc3nc4c(c(=O)[nH]3)CCC4)cc2)o1)C(C)C [(S)-17a]
B: CC(C)[C@@H](NS(=O)(=O)c1ccc(-c2ccc(CSc3nc4c(c(=O)[nH]3)CCC4)cc2)cc1)C(=O)O [Compound (R)-10a]
C: CNC(=O)[C@H](NC(=O)c1ccc(-c2ccc(CSc3nc4c(c(=O)[nH]3)CCC4)cc2)o1)C(C)C [(R)-17a]
q: Sort entries by pIC50 from minimum to maximum value. Present the labels in the sequence the task asks for.
a: C, A, B
(C: 7.14, A: 8.23, B: 8.62)

====

Here's a batch of molecules along with measured Ki for MMP-13 (Homo sapiens, UniProt P45452).
result type: Ki (nM)

molecule	Ki, nM
CC(C)[C@H](NS(=O)(=O)c1ccc(-c2ccc(CSc3nc4c(c(=O)[nH]3)CCC4)cc2)cc1)C(=O)O [(S)-10a]	2.3
CC(C)[C@@H](NS(=O)(=O)c1ccc(-c2ccc(CSc3nc4c(c(=O)[nH]3)CCC4)cc2)cc1)C(=O)O [Compound (R)-10a]	1.6
O=C(O)CNS(=O)(=O)c1ccc(-c2ccc(CSc3nc4c(c(=O)[nH]3)CCC4)cc2)cc1 [Compound 10b]	1.8
